# Read-out: Urokinase-type plasminogen activator receptor (uPAR), PLAUR (gene 5329)
# experiment.notes: BSK_BE3C_uPAR: BioMAP Diversity Plus: BE3C Assay for Urokinase-type plasminogen activator receptor (uPAR) Biomarker Activity (AID 2283039)
# assay.conditions: primary human bronchial epithelial cells; actives raise or lower the signal
Activity calls are given as the source filed them. How the source made its calls: active means hit-call score of the fitted dose curve at least 0.9, where 1 is the maximum; inactive means score below 0.9.
Labels: yes (active), no (inactive)

{"compound": "CCc1ccc(C(=O)NN(C(=O)c2cc(C)cc(C)c2)C(C)(C)C)cc1", "category": "no"}
{"compound": "O=C(O)C(F)(F)C(F)(F)C(F)(F)C(F)(F)C(F)(F)C(F)(F)C(F)(F)F", "category": "no"}
{"compound": "CC1(C)C(C=C(Cl)Cl)C1C(=O)OC(C#N)c1ccc(F)c(Oc2ccccc2)c1 (stereo unspecified)", "category": "no"}
{"compound": "CCS(=O)(=O)c1cccnc1S(=O)(=O)NC(=O)Nc1nc(OC)cc(OC)n1", "category": "no"}
{"compound": "O=C(NC(=O)c1c(F)cccc1F)Nc1ccc(OC(F)(F)C(F)OC(F)(F)F)c(Cl)c1 (stereo unspecified)", "category": "no"}
{"compound": "CCC(C)(NC(=O)c1cc(Cl)c(C)c(Cl)c1)C(=O)CCl (stereo unspecified)", "category": "yes"}
{"compound": "O=C(O)CCCOc1ccc(Cl)cc1Cl", "category": "no"}
{"compound": "CCOc1nc(NC)nc(NC(=O)NS(=O)(=O)c2ccccc2C(=O)OC)n1", "category": "no"}
{"compound": "C[C@H]1[C@H](c2ccc(Cl)cc2)SC(=O)N1C(=O)NC1CCCCC1", "category": "no"}
{"compound": "Oc1ccc(Cl)cc1Cc1ccccc1", "category": "yes"}
{"compound": "COP(=O)(OC)OC=C(Cl)Cl", "category": "yes"}
